Molecular target: CDK2 (Homo sapiens, UniProt P24941)
Construct: endogenous in cells; host or cells: MKN1 cells
Test: CDK2 degradation in MKN1 cells (AlphaLISA)
Type: cell-based
Conditions: 14 h incubation, read-out: CDK2 degradation 14 h: Mean external-Abs DC50
Protocol: Degradation of CDK2 in MKN1 cells was measured using AlphaLISA technology (PerkinElmer ALSU-TCDK2-A10K). MKN1 cells were maintained in RPMI1640 medium containing 10% FBS+1× penn/strep. […] Under subdued light, the plates were analyzed on an EnVision Microplate Reader (PerkinElmer Model 2009-0030). […] The data were analyzed using Xlfit (v5.3. 1.3) and the dose-dependent CDK2 degradation data were fit using a four-parameter logistic model to calculate DC50.
measured.quantity: DC50

What DC50 value was documented for this compound, Cc1cc(S(=O)(=O)N2CCC(CN(C)C3CCN(c4cccc5c4n(C)c(=O)n5C4CCC(=O)NC4=O)CC3)CC2)ccc1Nc1ncc2ccc(=O)n(C3CCCC3)c2n1 (centres unmarked) ?
< 100 nM

Same thing, different compound: CC1(O)CCCN(c2nc(Nc3ccc(S(=O)(=O)N4CCN(CC5CCC(Oc6ccc(C7CCC(=O)NC7=O)cc6)CC5)CC4)cc3C(F)F)ncc2C(F)(F)F)C1 (centres unmarked)
> 1000 nM

Similarly, Cc1cc(S(=O)(=O)NC2CCN(CC3CCN(c4ccc(C5CCC(=O)NC5=O)cc4F)CC3)CC2F)ccc1Nc1ncc(C(F)(F)F)c(N2CCCC(C)(O)C2)n1 (centres unmarked) [I-1140] ?
< 100 nM

Another compound: CC1(O)CCCN(c2nc(Nc3ccc(S(=O)(=O)NC4CCC(CN5CCN(c6ccc(C7CCC(=O)NC7=O)c(F)c6)CC5)CC4)cc3F)ncc2C(F)(F)F)C1 (centres unmarked)
< 100 nM

Okay, now this compound:
Which measured DC50 value corresponds to Cc1cc(S(=O)(=O)C2CC3(CCN(CC4CCN(c5cccc(N6CCC(=O)NC6=O)c5)CC4)CC3)C2)ccc1Nc1ncc2cc(Cl)c(=O)n(C3CCCC3)c2n1 ?
> 1000 nM
